Provenance of the data: patent US12649748B2

Test system: H1299 cells
assayProtocol: Anti-proliferative effect by Cell Titer-Glo, H1299
Assay type: cell-based
conditionParameters: Homo sapiens, NCI-H1299, 72 h; H1299 cells, 3 days, Cell Titer-Glo; read-out: IC50 measured value H1299
pIC50: −log10 of the molar value.
// values below are reported pIC50

Solved cases (6 shown):
>>> print(df.to_string())
                                   compound  experimentaltarget  experimentalvalue
0  CN1CCN(c2ccc(Nc3ncc4cnn(-c5cccc(N=S(C)(C)=O)c5F)c4n3)cc2)CC1 [Compound 33]         H1299 cells       5.30 to 6.00
1  CN1CCN(c2ccc(Nc3ncc4c(=O)n(C)n(-c5cccc(N=S(C)(C)=O)n5)c4n3)cc2)CC1 [Compound 27A]         H1299 cells       6.00 to 7.00
2  COc1cc(Nc2ncc3cnn(-c4cccc(N=S(C)(C)=O)n4)c3n2)ccc1N1CCN(C)CC1 [Compound 26]         H1299 cells       5.30 to 6.00
3  CN1CCN(c2ccc(Nc3ncc4cnn(-c5cc(C(C)(C)O)ccc5F)c4n3)cc2)CC1 [Compound 52]         H1299 cells       6.00 to 7.00
4  CN1CCN(c2ccc(Nc3ncc4cnn(-c5ccc6c(c5)C(O)CO6)c4n3)cc2)CC1 (stereo not shown) [Compound 39]         H1299 cells       5.30 to 6.00
5  CN1CCN(c2ccc(Nc3ncc4cnn(-c5cccc(C(C)(C)O)n5)c4n3)cc2)CC1 [Compound 2]         H1299 cells       5.30 to 6.00

Fill in: H1299 cells pIC50 for COc1nn(-c2cccc(N=S(C)(C)=O)n2)c2nc(Nc3ccc(N4CCN(C)CC4)cc3)ncc12 [Compound 27B] = 5.30 to 6.00

Fill in: H1299 cells pIC50 for CN1CCN(c2ccc(Nc3ncc4cnn(-c5ccc6ncc(C(C)(C)O)n6c5)c4n3)cc2)CC1 [Compound 55] = 5.30 to 6.00

Fill in: H1299 cells pIC50 for CN1CCN(c2ccc(Nc3ncc4cnn(-c5ccnc(C(C)(C)O)c5)c4n3)cc2)CC1 [Compound 29] = 6.00 to 7.00

Fill in: H1299 cells pIC50 for CN1CC2CC1CN2c1ccc(Nc2ncc3cnn(-c4cccc(N=S(C)(C)=O)n4)c3n2)cc1 (stereo not shown) [Compound 13] = 4.70 to 5.30
